What GI50 was measured for each of the following?
- Tested on: OVCAR-8
- test_name: NCI tumour cell line growth inhibition, 48 h
Calls of active or inactive are those of the source. No stated cut-off is given here; in the data, active = GI50 up to about 1.1 µM and inactive = higher.

stdin: Output measured GI50 for this item: CC1(C)CC23C4COC(=O)C2CCC1C3CC4=O (stereo not given)
stdout: 10 µM (inactive)

stdin: Output measured GI50 for this item: Cc1cc(NC2=NCCO2)c2c(c1C)CCCC2
stdout: 25.4 µM (inactive)

stdin: Output measured GI50 for this item: C=C(CO)CC(O)c1cc(OC)ccc1OC (stereo not given)
stdout: > 100 µM (inactive)

stdin: Output measured GI50 for this item: Cc1cccc2c(N)c3cccc(C(=O)NCC[N+](C)(C)Cc4ccccc4[N+](=O)[O-])c3nc12
stdout: 5.89 µM (inactive)

stdin: Output measured GI50 for this item: O=C1NC(=O)C(CCC(=O)c2cccc3ccccc23)C(=O)N1
stdout: > 100 µM (inactive)

Hey, just so you know, these numbers are from ChEMBL document CHEMBL1201862.
